Experiment: cytotoxicity, growing P-388 mouse lymphoid leukemia cells in presence of drug
Conditions: p-388 cells
Hi there, I'd appreciate the recorded CC50 for every entry that follows.
Please make sure the unit comes right after the number.

Requested read-out: CC50. Entry: Nc1ncnc2c1ncn2[C@@H]1C[C@H](CO)[C@@H](O)[C@@H]1O (relative stereo)
10 µM

Requested read-out: CC50. Entry: Nc1ncnc2c1ncn2[C@@H]1O[C@H](CO)[C@@H](O)[C@@H]1O [ara-A, reference compound]
10 µM

###

Experiment: toxicity in uninfected (toxicity control) or treated mice
Type: in vivo, Random-bred Swiss mice, female
Conditions: mouse, in vivo, ip; C-Ara-A 112.5 mg/kg/day, uninfected toxicity controls
QUANTITY_NAME: mortality at 504 h (%)
Give your result in % as a bare value.

Requested read-out: mortality at 504 h. Entry: Nc1ncnc2c1ncn2[C@@H]1C[C@H](CO)[C@@H](O)[C@@H]1O (relative stereo) [cyclaradine]
0

###

Test: toxicity in uninfected (toxicity control) or treated mice
Assay type: in vivo, Random-bred Swiss mice, female
Conditions: mouse, in vivo, ip; Ara-A 250 mg/kg/day, uninfected toxicity controls
QUANTITY_NAME: mortality at 504 h (%)
Give your result in % as a bare value.

Requested read-out: mortality at 504 h. Entry: Nc1ncnc2c1ncn2[C@@H]1O[C@H](CO)[C@@H](O)[C@@H]1O [ara-A, reference compound]
0

###

Assay: toxicity in uninfected (toxicity control) or treated mice
Assay type: in vivo, Random-bred Swiss mice, female
Details: mouse, in vivo, ip; C-Ara-A 225 mg/kg/day, uninfected toxicity controls
QUANTITY_NAME: mortality at 504 h (%)
Give your result in % as a bare value.

Requested read-out: mortality at 504 h. Entry: Nc1ncnc2c1ncn2[C@@H]1C[C@H](CO)[C@@H](O)[C@@H]1O (relative stereo)
0

###

Assay: toxicity in uninfected (toxicity control) or treated mice
Type: in vivo, Random-bred Swiss mice, female
Conditions: mouse, in vivo, ip; C-Ara-A 900 mg/kg/day, uninfected toxicity controls
QUANTITY_NAME: mortality at 504 h (%)
Give your result in % as a bare value.

Requested read-out: mortality at 504 h. Entry: Nc1ncnc2c1ncn2[C@@H]1C[C@H](CO)[C@@H](O)[C@@H]1O (relative stereo)
0
